# Tested on: Zymoseptoria tritici (the causal agent of wheat leaf blotch)
# protocol.text: Test B: preventive spray on wheat seedlings, wheat leaf blotch, visual disease rating
# Type: in vivo
# experimental.context: test suspension 250 ppm; wheat seedlings
Marks after values point to notes of the source that are not given here.
Reported Test B disease control rating values for a set of molecules

IN: Query: Test B disease control rating; subject: O=C(NCC1CC1)c1csc(Cc2ccc(-c3noc(C(F)(F)F)n3)s2)n1
OUT: 83%

---

# Test system: Phakopsora pachyrhizi (the causal agent of Asian soybean rust)
# protocol.text: Test A: preventive spray on soybean seedlings, Asian soybean rust, visual disease rating
# Assay type: in vivo
# experimental.context: test suspension 10 ppm; soybean seedlings; 100 = 100% disease control, 0 = no control
parameter: Test A disease control rating
Quick note: number first, unit second.

compound: COCCNC(=O)c1csc(Cc2ccc(-c3noc(C(F)(F)F)n3)cc2)c1 [compound 287]
assay.result: 100%

IN: Query: Test A disease control rating; subject: CCN(CC)C(=O)c1coc(Cc2ccc(-c3noc(C(F)(F)F)n3)cc2)n1 [compound 262]
OUT: 100%

IN: Query: Test A disease control rating; subject: CC(C)NC(=O)c1cnn(Cc2ccc(-c3noc(C(F)(F)F)n3)cc2)c1 [compound 63]
OUT: 100%

IN: Query: Test A disease control rating; subject: C=CCOC(=O)c1cnn(Cc2ccc(-c3noc(C(F)(F)F)n3)cc2)c1 [compound 166]
OUT: 100%

---

Reported Test C disease control rating values for a set of compounds
# Tested on: Puccinia recondita f. sp. tritici (the causal agent of wheat leaf rust)
# protocol.text: Test C: preventive spray on wheat seedlings, wheat leaf rust, visual disease rating
# Format: in vivo
# experimental.context: test suspension 255 ppm; wheat seedlings
Report the figure in % without appending any unit label.

Sample answers from the record:
structure.as.smiles: O=c1sc2ccccc2n1Cc1ccc(-c2noc(C(F)(F)F)n2)cc1
parameter: Test C disease control rating
assay.result: 100
--
structure.as.smiles: CCOC(=O)c1c2ccccc2nn1Cc1ccc(-c2noc(C(F)(F)F)n2)cc1
parameter: Test C disease control rating
assay.result: 99

We next turn to a different compound, shown below.
IN: Query: Test C disease control rating; subject: CCOC(=O)c1c(C)nn(Cc2ccc(-c3noc(C(F)(F)F)n3)cc2)c1C
OUT: 100

---

# System: Zymoseptoria tritici (the causal agent of wheat leaf blotch)
# protocol.text: Test B: preventive spray on wheat seedlings, wheat leaf blotch, visual disease rating
# Format: in vivo
# experimental.context: 250 ppm test suspension; wheat seedlings; 100 = 100% disease control
Marks after values point to notes of the source that are not given here.
parameter: Test B disease control rating

molecule: O=C(NCCC(F)(F)F)c1csc(Cc2ccc(-c3noc(C(F)(F)F)n3)cc2)n1 [compound 397]
Test B disease control rating: 82* %
--
molecule: COC(=O)c1coc(COc2ccc(-c3noc(C(F)(F)F)n3)cc2)n1 [Compound 403]
Test B disease control rating: 47* %
--
molecule: O=C(c1ccc(Cc2ccc(-c3noc(C(F)(F)F)n3)cc2)o1)C(F)(F)F [compound 450]
Test B disease control rating: 41* %

IN: Could you share what Test B disease control rating was measured for O=C(NCCn1cccn1)c1coc(COc2ccc(-c3noc(C(F)(F)F)n3)cc2)n1 [compound 466] , tested on Zymoseptoria tritici (the causal agent of wheat leaf blotch)?
OUT: 3* %

IN: Could you share what Test B disease control rating was measured for OC(c1ccc(F)cc1)c1ccc(-c2noc(C(F)(F)F)n2)cc1 (stereo not shown) [compound 500] , tested on Zymoseptoria tritici (the causal agent of wheat leaf blotch)?
OUT: 5* %

IN: Could you share what Test B disease control rating was measured for COC(=O)c1coc(Cc2ccc(-c3noc(C(F)(F)F)n3)cc2)n1 [Compound 490] , tested on Zymoseptoria tritici (the causal agent of wheat leaf blotch)?
OUT: 94* %

IN: Could you share what Test B disease control rating was measured for O=C(NCC(F)(F)F)c1csc(COc2ccc(-c3noc(C(F)(F)F)n3)cc2)n1 [compound 470] , tested on Zymoseptoria tritici (the causal agent of wheat leaf blotch)?
OUT: 0* %

IN: Could you share what Test B disease control rating was measured for CC1(C)OCC(COC(=O)c2cnn(Cc3ccc(-c4noc(C(F)(F)F)n4)cc3)c2)O1 (stereo not shown) [compound 496] , tested on Zymoseptoria tritici (the causal agent of wheat leaf blotch)?
OUT: 48* %

---

# System: Puccinia recondita f. sp. tritici (the causal agent of wheat leaf rust)
# protocol.text: Test C: preventive spray on wheat seedlings, wheat leaf rust, visual disease rating
# Assay type: in vivo
# experimental.context: Puccinia recondita, 168 h; 10 ppm test suspension; wheat seedlings; 100 = 100% disease control, 0 = no control
parameter: pest or weed control at 10 ppm
Quick note: number first, unit second.

Sample answers from the record:
compound: COCCNC(=O)c1csc(Cc2ccc(-c3noc(C(F)(F)F)n3)cc2)n1 [Compound 394]
assayed.target: Puccinia recondita f. sp. tritici (the causal agent of wheat leaf rust)
pest or weed control at 10 ppm: 100%
//
compound: O=C(NCCOC(F)(F)F)c1coc(Cc2ccc(-c3noc(C(F)(F)F)n3)cc2)n1 [Compound 401]
assayed.target: Puccinia recondita f. sp. tritici (the causal agent of wheat leaf rust)
pest or weed control at 10 ppm: 99%
//
compound: N#CCn1ccc(Cc2ccc(-c3noc(C(F)(F)F)n3)cc2)n1 [Compound 507]
assayed.target: Puccinia recondita f. sp. tritici (the causal agent of wheat leaf rust)
pest or weed control at 10 ppm: 98%
//
compound: Cn1nc(Cc2ccc(-c3noc(C(F)(F)F)n3)cc2)cc1C(=O)NCC(F)(F)F [Compound 512]
assayed.target: Puccinia recondita f. sp. tritici (the causal agent of wheat leaf rust)
pest or weed control at 10 ppm: 100%

IN: Query: pest or weed control at 10 ppm; subject: N#CCc1cc(Cc2ccc(-c3noc(C(F)(F)F)n3)cc2)on1 [Compound 510]
OUT: 84%

IN: Query: pest or weed control at 10 ppm; subject: O=C(NCC(F)F)c1csc(Cc2ccc(-c3noc(C(F)(F)F)n3)cc2)n1 [Compound 505]
OUT: 100%

---

Reported Test B disease control rating values for a set of compounds
# System: Zymoseptoria tritici (the causal agent of wheat leaf blotch)
# protocol.text: Test B: preventive spray on wheat seedlings, wheat leaf blotch, visual disease rating
# Format: in vivo
# experimental.context: test suspension 250 ppm; wheat seedlings
Marks after values point to notes of the source that are not given here.

Sample answers from the record:
compound: O=C(OCC1CC1)c1cnn(COc2ccc(-c3noc(C(F)(F)F)n3)cc2)c1 [compound 216]
assayed.target: Zymoseptoria tritici (the causal agent of wheat leaf blotch)
assay.result: 9* %
//
compound: CCc1nn(Cc2ccc(-c3noc(C(F)(F)F)n3)cc2)c(=O)n1C [compound 235]
assayed.target: Zymoseptoria tritici (the causal agent of wheat leaf blotch)
assay.result: 87%

IN: Query: Test B disease control rating; subject: O=C(NCCn1cccn1)c1cnn(COc2ccc(-c3noc(C(F)(F)F)n3)cc2)c1 [compound 215]
OUT: 90* %

IN: Query: Test B disease control rating; subject: CCOC(=O)c1cnn(CCCn2nc(-c3noc(C(F)(F)F)n3)ccc2=O)c1 [compound 358]
OUT: 0* %

IN: Query: Test B disease control rating; subject: O=C(O)c1csc(Cc2ccc(-c3noc(C(F)(F)F)n3)cc2)n1 [compound 345]
OUT: 50* %

IN: Query: Test B disease control rating; subject: N#CCNC(=O)c1csc(Cc2ccc(-c3noc(C(F)(F)F)n3)cc2)c1 [compound 288]
OUT: 91* %

IN: Query: Test B disease control rating; subject: CCN(CC)C(=O)c1coc(Cc2ccc(-c3noc(C(F)(F)F)n3)cc2)n1 [compound 262]
OUT: 96* %

IN: Query: Test B disease control rating; subject: O=C1C(=O)N(Cc2ccc(-c3noc(C(F)(F)F)n3)cc2)c2ccccc21 [compound 87]
OUT: 82%

IN: Query: Test B disease control rating; subject: FC(F)(F)c1nc(-c2ccc(Cn3ccc(-c4ccc(Cl)cc4)n3)cc2)no1 [compound 122]
OUT: 0%

---

# Tested on: Puccinia recondita f. sp. tritici (the causal agent of wheat leaf rust)
# protocol.text: Test C: preventive spray on wheat seedlings, wheat leaf rust, visual disease rating
# Assay type: in vivo
# experimental.context: test suspension 10 ppm; wheat seedlings
Reported Test C disease control rating values for a set of compounds
Report the figure in % without appending any unit label.

Sample answers from the record:
compound: N#CCNC(=O)c1ccc(Cc2ccc(-c3noc(C(F)(F)F)n3)cc2)cc1
assayed.target: Puccinia recondita f. sp. tritici (the causal agent of wheat leaf rust)
Test C disease control rating / %: 98
--
compound: O=C(COC(=O)c1cnn(Cc2ccc(-c3noc(C(F)(F)F)n3)cc2)c1)c1ccccc1
assayed.target: Puccinia recondita f. sp. tritici (the causal agent of wheat leaf rust)
Test C disease control rating / %: 95
--
compound: CCNC(=O)c1cnn(Cc2ccc(-c3noc(C(F)(F)F)n3)cc2)c1
assayed.target: Puccinia recondita f. sp. tritici (the causal agent of wheat leaf rust)
Test C disease control rating / %: 99
--
compound: CC(C)(NC(=O)c1coc(Cc2ccc(-c3noc(C(F)(F)F)n3)cc2)n1)C(F)(F)F
assayed.target: Puccinia recondita f. sp. tritici (the causal agent of wheat leaf rust)
Test C disease control rating / %: 94

IN: Query: Test C disease control rating; subject: C=CC(F)(F)OC(=O)c1cnn(Cc2ccc(-c3noc(C(F)(F)F)n3)cc2)c1
OUT: 100

IN: Query: Test C disease control rating; subject: FC(F)(F)c1nc(-c2ccc(OCc3cccnc3)cc2)no1
OUT: 0

IN: Query: Test C disease control rating; subject: N#CCNC(=O)c1coc(Cc2ccc(-c3noc(C(F)(F)F)n3)cc2)n1
OUT: 99
